- target_or_system: ALK (Homo sapiens)
pIC50: −log10 of the molar value.
property_measured: pIC50

1. NC(N)=NCCC[C@H](NCN1CCN(C(=O)c2cc(Cc3n[nH]c(=O)c4ccccc34)ccc2F)CC1)C(=O)O : < 5.00

* * *

- target_or_system: UniProt:Q9H0J9
- Sequence (Q9H0J9 whole entry, canonical isoform): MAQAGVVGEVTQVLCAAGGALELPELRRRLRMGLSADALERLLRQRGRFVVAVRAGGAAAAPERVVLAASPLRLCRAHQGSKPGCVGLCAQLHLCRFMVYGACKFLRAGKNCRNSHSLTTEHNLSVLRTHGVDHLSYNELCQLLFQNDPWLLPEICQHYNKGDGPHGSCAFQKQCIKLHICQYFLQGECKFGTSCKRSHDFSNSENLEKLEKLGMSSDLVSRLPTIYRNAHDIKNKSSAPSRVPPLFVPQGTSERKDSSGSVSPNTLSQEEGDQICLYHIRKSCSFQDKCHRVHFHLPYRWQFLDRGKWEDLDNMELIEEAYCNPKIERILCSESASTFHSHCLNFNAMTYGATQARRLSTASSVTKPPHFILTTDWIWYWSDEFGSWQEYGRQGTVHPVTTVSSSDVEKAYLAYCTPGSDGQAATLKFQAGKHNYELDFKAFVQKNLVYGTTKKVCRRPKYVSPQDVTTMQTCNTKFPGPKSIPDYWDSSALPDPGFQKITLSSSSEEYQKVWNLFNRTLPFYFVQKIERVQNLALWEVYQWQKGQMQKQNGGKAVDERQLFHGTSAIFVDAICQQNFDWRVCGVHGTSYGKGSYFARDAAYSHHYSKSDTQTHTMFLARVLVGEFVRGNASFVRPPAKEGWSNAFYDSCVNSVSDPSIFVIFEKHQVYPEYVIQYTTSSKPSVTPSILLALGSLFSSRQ
- experiment_summary: Selectivity profile (other isoforms of PARP and NRP family)
property_measured: IC50

1. NC(N)=NCCC[C@H](NCN1CCN(C(=O)c2cc(Cc3n[nH]c(=O)c4ccccc34)ccc2F)CC1)C(=O)O : > 10 µM

* * *

- target_or_system: DYRK1A (Homo sapiens, UniProt Q13627)
property_measured: IC50

1) NC(N)=NCCC[C@H](NCN1CCN(C(=O)c2cc(Cc3n[nH]c(=O)c4ccccc34)ccc2F)CC1)C(=O)O [PPNR-4] : > 10 µM

* * *

- experiment_summary: In vivo pharmacokinetic studies
- Set-up: species or system SD rats
- applied_conditions: Sprague-Dawley (SD), rat, plasma, po; SD rats; p.o; 10 mg/kg
property_measured: Cmax (ng/mL)

1. NC(N)=NCCC[C@H](NCN1CCN(C(=O)c2cc(Cc3n[nH]c(=O)c4ccccc34)ccc2F)CC1)C(=O)O [PPNR-4] : 812

* * *

- target_or_system: JAK3 (Homo sapiens, UniProt P52333)
pIC50: −log10 of the molar value.
property_measured: pIC50

1. NC(N)=NCCC[C@H](NCN1CCN(C(=O)c2cc(Cc3n[nH]c(=O)c4ccccc34)ccc2F)CC1)C(=O)O [PPNR-4] : < 5.00

* * *

- target_or_system: EPHA8 (Homo sapiens, UniProt P29322)
- Sequence (P29322 28-1005, species assumed): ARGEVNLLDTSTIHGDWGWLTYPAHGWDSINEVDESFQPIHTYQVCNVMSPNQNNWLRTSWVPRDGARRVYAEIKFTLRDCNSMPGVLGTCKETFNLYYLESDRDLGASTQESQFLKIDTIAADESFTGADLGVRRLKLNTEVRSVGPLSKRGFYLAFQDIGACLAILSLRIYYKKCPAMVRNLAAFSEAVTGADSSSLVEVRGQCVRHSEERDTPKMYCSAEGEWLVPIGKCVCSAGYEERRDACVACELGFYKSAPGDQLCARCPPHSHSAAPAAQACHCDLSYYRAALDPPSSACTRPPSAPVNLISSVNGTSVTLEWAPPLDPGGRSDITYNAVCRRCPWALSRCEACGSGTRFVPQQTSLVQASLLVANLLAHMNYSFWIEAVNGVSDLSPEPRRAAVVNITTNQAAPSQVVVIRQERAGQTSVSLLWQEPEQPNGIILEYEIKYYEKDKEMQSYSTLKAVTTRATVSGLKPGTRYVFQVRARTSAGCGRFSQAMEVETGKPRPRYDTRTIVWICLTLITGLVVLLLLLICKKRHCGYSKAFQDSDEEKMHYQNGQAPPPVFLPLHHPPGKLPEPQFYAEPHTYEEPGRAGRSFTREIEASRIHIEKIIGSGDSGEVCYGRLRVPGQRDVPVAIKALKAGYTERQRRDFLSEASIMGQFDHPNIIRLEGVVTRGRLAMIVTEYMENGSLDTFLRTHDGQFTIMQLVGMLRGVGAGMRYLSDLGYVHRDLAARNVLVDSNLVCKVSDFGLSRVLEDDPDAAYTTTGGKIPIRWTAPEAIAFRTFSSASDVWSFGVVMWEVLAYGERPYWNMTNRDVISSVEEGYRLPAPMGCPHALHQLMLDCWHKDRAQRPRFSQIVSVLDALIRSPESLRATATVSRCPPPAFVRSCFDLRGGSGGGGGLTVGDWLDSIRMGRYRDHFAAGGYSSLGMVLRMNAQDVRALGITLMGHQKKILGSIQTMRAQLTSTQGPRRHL
property_measured: IC50

1) NC(N)=NCCC[C@H](NCN1CCN(C(=O)c2cc(Cc3n[nH]c(=O)c4ccccc34)ccc2F)CC1)C(=O)O : > 10 µM

* * *

- target_or_system: PARP14 (Homo sapiens)
- Sequence (Q460N5 whole entry, canonical isoform): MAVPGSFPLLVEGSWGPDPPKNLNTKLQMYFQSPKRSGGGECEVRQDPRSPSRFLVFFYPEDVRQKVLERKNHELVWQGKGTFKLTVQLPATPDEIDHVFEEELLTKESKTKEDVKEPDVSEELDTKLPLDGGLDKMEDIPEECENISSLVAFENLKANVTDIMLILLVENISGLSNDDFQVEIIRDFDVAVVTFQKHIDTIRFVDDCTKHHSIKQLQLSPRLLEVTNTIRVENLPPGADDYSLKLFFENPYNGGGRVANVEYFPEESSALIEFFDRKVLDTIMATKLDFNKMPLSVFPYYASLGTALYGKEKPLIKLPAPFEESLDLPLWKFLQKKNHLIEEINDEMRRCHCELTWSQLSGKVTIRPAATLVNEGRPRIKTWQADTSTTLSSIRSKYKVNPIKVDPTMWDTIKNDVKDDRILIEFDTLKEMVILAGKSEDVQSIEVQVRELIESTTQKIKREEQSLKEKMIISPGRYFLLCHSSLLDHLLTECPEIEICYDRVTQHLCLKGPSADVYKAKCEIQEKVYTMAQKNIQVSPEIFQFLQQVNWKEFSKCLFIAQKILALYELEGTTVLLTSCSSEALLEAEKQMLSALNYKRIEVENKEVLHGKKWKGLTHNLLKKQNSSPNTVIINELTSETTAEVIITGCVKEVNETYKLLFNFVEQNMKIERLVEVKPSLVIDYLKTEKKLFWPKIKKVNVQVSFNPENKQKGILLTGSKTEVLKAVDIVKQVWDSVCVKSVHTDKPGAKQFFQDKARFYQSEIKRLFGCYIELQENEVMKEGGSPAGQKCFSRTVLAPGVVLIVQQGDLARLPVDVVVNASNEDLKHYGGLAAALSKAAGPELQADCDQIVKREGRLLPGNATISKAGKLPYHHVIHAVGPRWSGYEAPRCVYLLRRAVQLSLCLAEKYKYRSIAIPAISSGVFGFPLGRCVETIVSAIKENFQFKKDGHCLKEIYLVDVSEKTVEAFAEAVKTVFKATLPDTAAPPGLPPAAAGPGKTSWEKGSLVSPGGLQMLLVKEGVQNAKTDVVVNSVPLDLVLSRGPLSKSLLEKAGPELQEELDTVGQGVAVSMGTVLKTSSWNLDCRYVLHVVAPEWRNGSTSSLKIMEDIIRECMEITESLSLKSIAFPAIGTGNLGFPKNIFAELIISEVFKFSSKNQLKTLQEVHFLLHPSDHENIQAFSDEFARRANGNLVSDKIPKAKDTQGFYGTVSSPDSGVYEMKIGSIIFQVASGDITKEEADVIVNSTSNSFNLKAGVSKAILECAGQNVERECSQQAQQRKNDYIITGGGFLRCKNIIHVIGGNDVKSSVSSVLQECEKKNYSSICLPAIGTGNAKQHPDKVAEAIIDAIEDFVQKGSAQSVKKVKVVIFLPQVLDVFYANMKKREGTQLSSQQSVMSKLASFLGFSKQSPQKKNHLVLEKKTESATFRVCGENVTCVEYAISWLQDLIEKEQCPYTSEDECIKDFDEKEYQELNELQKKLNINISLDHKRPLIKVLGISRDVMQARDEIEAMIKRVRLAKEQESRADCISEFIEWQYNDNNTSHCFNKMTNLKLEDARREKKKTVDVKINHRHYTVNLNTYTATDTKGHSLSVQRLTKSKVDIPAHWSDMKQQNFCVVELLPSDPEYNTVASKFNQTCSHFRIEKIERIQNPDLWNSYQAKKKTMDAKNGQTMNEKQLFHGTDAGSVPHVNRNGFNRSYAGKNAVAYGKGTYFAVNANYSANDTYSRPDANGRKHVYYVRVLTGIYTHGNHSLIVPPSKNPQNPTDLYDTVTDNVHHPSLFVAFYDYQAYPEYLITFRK
- experiment_summary: Selectivity profile (other isoforms of PARP and NRP family)
property_measured: IC50

1) NC(N)=NCCC[C@H](NCN1CCN(C(=O)c2cc(Cc3n[nH]c(=O)c4ccccc34)ccc2F)CC1)C(=O)O : > 10 µM

* * *

- target_or_system: UniProt P53779
- Sequence (P53779 whole entry): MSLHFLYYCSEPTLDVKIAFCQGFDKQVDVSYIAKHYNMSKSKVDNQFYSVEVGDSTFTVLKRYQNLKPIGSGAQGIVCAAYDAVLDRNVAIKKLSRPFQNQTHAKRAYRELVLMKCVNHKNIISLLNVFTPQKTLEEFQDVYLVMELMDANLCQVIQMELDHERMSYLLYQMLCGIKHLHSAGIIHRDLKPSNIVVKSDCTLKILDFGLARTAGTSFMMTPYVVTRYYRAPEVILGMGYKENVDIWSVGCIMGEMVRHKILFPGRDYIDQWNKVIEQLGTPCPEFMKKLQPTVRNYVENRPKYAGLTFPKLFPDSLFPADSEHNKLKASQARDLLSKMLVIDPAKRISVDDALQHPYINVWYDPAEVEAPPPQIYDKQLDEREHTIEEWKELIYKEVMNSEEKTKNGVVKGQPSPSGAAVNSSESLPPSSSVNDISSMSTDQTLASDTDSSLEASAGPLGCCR
property_measured: IC50

1. NC(N)=NCCC[C@H](NCN1CCN(C(=O)c2cc(Cc3n[nH]c(=O)c4ccccc34)ccc2F)CC1)C(=O)O : > 10 µM

* * *

- target_or_system: LCK (Homo sapiens)
- Sequence (P06239 whole entry): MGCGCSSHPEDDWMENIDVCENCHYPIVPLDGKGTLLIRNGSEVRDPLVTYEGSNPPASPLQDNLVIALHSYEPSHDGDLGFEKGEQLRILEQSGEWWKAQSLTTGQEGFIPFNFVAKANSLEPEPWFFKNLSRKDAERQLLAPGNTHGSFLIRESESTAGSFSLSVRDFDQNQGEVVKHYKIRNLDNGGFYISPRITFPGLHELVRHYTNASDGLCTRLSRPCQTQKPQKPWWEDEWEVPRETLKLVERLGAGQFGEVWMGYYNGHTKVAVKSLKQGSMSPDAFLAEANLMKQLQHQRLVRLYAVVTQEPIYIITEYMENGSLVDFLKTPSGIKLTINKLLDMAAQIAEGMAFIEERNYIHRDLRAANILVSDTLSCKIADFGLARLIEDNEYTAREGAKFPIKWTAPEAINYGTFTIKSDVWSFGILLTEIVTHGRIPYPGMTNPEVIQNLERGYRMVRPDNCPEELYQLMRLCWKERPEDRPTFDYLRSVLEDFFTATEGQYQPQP
property_measured: IC50

1) NC(N)=NCCC[C@H](NCN1CCN(C(=O)c2cc(Cc3n[nH]c(=O)c4ccccc34)ccc2F)CC1)C(=O)O [PPNR-4] : > 10 µM

* * *

- target_or_system: PARP9 (Homo sapiens)
property_measured: Kd

1. NC(N)=NCCC[C@H](NCN1CCN(C(=O)c2cc(Cc3n[nH]c(=O)c4ccccc34)ccc2F)CC1)C(=O)O : > 10 µM

* * *

- target_or_system: MER (Homo sapiens, UniProt Q12866)
- Sequence (Q12866 21-999): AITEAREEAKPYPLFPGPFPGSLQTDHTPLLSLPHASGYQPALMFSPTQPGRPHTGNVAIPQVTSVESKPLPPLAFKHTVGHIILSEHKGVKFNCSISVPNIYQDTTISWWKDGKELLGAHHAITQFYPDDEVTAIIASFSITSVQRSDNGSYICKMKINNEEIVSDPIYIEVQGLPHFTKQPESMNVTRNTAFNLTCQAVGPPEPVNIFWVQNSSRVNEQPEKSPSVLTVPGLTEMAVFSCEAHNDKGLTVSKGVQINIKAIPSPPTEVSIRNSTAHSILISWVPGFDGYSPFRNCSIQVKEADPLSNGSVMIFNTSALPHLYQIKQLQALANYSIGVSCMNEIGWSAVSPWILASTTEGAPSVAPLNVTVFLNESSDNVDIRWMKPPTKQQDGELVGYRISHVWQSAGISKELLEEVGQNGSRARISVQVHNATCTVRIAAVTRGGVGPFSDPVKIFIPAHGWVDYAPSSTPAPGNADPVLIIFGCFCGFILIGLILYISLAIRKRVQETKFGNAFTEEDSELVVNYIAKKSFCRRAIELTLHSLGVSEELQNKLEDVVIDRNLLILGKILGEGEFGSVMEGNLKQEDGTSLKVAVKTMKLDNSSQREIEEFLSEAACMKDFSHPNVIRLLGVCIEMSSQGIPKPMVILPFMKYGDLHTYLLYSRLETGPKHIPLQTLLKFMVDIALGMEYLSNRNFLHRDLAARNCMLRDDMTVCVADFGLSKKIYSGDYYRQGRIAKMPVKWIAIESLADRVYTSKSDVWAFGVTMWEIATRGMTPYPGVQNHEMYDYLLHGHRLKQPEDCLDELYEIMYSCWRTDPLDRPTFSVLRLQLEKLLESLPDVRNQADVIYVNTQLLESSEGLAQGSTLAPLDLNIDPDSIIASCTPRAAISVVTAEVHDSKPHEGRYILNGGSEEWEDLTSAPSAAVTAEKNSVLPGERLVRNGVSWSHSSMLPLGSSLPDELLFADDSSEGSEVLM
pIC50: −log10 of the molar value.
property_measured: pIC50

1. NC(N)=NCCC[C@H](NCN1CCN(C(=O)c2cc(Cc3n[nH]c(=O)c4ccccc34)ccc2F)CC1)C(=O)O [PPNR-4] : < 5.00

* * *

- target_or_system: DCAMKL1 (Homo sapiens)
- Sequence (O15075 1-740): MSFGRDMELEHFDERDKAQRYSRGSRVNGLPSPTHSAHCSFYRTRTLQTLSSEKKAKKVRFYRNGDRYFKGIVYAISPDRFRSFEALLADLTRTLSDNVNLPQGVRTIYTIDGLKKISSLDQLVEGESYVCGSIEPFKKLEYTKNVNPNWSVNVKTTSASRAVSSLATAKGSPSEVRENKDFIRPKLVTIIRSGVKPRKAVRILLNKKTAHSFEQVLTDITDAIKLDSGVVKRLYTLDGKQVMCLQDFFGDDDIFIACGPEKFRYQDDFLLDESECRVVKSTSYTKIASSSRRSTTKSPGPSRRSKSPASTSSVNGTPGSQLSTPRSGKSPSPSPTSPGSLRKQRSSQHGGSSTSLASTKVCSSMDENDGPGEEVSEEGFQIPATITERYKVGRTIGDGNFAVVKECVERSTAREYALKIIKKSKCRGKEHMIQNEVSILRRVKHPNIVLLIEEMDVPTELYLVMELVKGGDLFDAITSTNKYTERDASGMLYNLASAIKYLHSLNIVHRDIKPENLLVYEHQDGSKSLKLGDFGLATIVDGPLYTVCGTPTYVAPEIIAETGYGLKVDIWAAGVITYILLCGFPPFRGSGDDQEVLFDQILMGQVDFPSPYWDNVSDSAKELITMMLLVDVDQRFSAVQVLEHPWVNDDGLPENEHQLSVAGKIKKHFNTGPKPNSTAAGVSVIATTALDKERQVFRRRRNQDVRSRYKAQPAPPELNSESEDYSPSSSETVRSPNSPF
pIC50: −log10 of the molar value.
property_measured: pIC50

1. NC(N)=NCCC[C@H](NCN1CCN(C(=O)c2cc(Cc3n[nH]c(=O)c4ccccc34)ccc2F)CC1)C(=O)O [PPNR-4] : < 5.00

* * *

- target_or_system: AurC (Homo sapiens)
property_measured: IC50

1) NC(N)=NCCC[C@H](NCN1CCN(C(=O)c2cc(Cc3n[nH]c(=O)c4ccccc34)ccc2F)CC1)C(=O)O : > 10 µM

* * *

- target_or_system: PARP3 (Homo sapiens)
- Sequence (Q9Y6F1 1-533): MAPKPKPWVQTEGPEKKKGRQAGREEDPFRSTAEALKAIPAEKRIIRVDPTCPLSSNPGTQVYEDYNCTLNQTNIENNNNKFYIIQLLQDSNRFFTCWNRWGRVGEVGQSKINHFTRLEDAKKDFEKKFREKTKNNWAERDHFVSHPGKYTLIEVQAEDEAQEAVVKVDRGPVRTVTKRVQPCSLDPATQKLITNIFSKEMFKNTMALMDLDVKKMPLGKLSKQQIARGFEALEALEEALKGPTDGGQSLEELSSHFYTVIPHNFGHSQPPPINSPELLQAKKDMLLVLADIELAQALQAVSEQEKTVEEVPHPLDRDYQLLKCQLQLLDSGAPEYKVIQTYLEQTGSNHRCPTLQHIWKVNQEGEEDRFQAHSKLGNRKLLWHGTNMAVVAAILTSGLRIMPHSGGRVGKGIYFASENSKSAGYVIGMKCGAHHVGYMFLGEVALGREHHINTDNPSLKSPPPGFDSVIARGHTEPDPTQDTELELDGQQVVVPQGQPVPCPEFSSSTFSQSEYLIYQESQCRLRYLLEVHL
- experiment_summary: Selectivity profile (other isoforms of PARP and NRP family)
pIC50: −log10 of the molar value.
property_measured: pIC50

1) NC(N)=NCCC[C@H](NCN1CCN(C(=O)c2cc(Cc3n[nH]c(=O)c4ccccc34)ccc2F)CC1)C(=O)O : < 5.00

* * *

- target_or_system: LYNa (Homo sapiens)
- Sequence (P07948 whole entry): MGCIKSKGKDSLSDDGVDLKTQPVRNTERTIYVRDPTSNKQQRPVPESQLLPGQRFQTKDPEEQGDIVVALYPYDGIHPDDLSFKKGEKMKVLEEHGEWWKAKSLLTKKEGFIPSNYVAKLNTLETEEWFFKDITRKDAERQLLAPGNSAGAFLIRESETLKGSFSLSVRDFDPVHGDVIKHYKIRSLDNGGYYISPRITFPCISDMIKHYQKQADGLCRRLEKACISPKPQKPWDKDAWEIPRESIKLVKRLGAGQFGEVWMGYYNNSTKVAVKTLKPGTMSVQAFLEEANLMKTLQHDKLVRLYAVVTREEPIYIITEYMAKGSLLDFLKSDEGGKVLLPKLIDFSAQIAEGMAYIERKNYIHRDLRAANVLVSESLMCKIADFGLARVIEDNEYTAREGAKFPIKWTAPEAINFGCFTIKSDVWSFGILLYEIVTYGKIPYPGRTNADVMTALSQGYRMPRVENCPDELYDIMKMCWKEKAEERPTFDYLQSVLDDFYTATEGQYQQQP
property_measured: IC50

1. NC(N)=NCCC[C@H](NCN1CCN(C(=O)c2cc(Cc3n[nH]c(=O)c4ccccc34)ccc2F)CC1)C(=O)O : > 10 µM
